Test system: SUDHL10
method_summary: Induction of caspase-3/7 activity (Caspase-Glo 3/7), SUDHL10
Format: cell-based
condition_details: Homo sapiens, SU-DHL10, 3 h, caspase-3/7 induction, SUDHL10 cells, 3 h treatment; median
property_measured: EC50 (µM)

CCc1c2c(nn1CCN1CCOCC1)COCCCCn1c(C(=O)O)c(CCCOc3cccc4ccccc34)c3ccc(C)c-2c31 (racemic) [Example 204]	6.09

(a) CC(C)OCc1nn(C)c2c1-c1cccc3c(CCCOc4cccc5ccccc45)c(C(=O)O)n(c13)CCCCN(C)C2 (single isomer, unassigned) [Example 1-74]
(b) CCN(CC)S(=O)(=O)N1CCN(c2ccc(OCc3nn(C)c4c3-c3cccc5c(CCCOc6cccc7ccccc67)c(C(=O)O)n(c35)CCCCOC4)cc2)CC1 (single isomer, unassigned; enantiomer 1) [Example 1-4]
[Q] Endpoint returns the identifier whose EC50 is numerically larger, either a or b . Select an item and report its label.
[A] a

====

System: A2780
method_summary: Anti-proliferative effect (CellTiter-Glo, 72 h), A2780
Format: cell-based
condition_details: A2780 cells, median, read-out: IC50 antiproliferation assay A2780 [M] (median)
property_measured: IC50 (M)

Recorded results for 3 compounds are shown here.
Cc1nn(C)c2c1-c1cccc3c(CCCOc4cccc5cc(F)ccc45)c(C(=O)O)n(c13)CCCCOC2 (single isomer, unassigned; enantiomer 2) [Example 020]	1.37e-05
Cc1ccc2c(C(C)CCOc3cccc4ccccc34)c(C(=O)O)n3c2c1-c1c(C)nn(C)c1COCCCC3 (single isomer, unassigned) [Example 259]	2.21e-05
COCC(=O)N1CCN(c2ccc(OCc3nn(C)c4c3-c3cccc5c(CCCOc6cccc7ccccc67)c(C(=O)O)n(c35)CCCCOC4)cc2)CC1 (single isomer, unassigned; enantiomer 2)	2.38e-05

(1) Cc1c2c(nn1C1CC1)COCCCCn1c(C(=O)O)c(CCCOc3cccc4ccccc34)c3cccc-2c31 (single isomer, unassigned; enantiomer 2)
(2) COc1ccc(OCc2nn(C)c3c2-c2cccc4c(CCCOc5cccc6ccccc56)c(C(=O)O)n(c24)CCCCOC3)cc1 (single isomer, unassigned; enantiomer 2)
[Q] Endpoint returns the identifier whose IC50 is numerically larger, either 1 or 2 . Select an item and report its label.
[A] 1
(1: 2.58e-05 M, 2: 1e-05 M)

====

Tested on: OPM2
method_summary: Anti-proliferative effect (CellTiter-Glo, 72 h), OPM2
Assay type: cell-based
condition_details: Homo sapiens, OPM-2, 72 h, OPM2 cells, median, read-out: IC50 antiproliferation assay OPM2 [M] (median)
Measured IC50 values are reported for all entries that follow.
Quick note: give the figure in M, leave out the unit.

[Q] Find the recorded IC50 belonging to Cc1c2c(nn1C)COC/C=C\Cn1c(C(=O)O)c(CCCOc3cccc4ccccc34)c3cccc-2c31 (racemic) and report it.
[A] 1.67e-05

[Q] Next molecule: CCc1c2c(nn1C)CN(C)CCCn1c(C(=O)O)c(CCCOc3cccc4ccccc34)c3cccc-2c31 (racemic)
[A] 9.12e-06

[Q] Next molecule: CN(C)S(=O)(=O)N1CCN(c2ccc(OCc3nn(C)c4c3-c3cccc5c(CCCOc6cccc7ccccc67)c(C(=O)O)n(c35)CCCN(Cc3ccccc3)C4)cc2)CC1 (racemic)
[A] 1.09e-05
